test: qHTS for Inhibitors of Vif-A3F Interactions: qHTS; settings: HeLa A3F-eYFP + Vif, YFP fluorescence increase; series mostly up to 46.1 µM; also: nearly all actives have a fitted effect of over 65% in size
Hit rate of the full screen: of about 390,000 compounds, about 760 (0.19%) were called active. Another 3% or so got no clear call; they are omitted. Calls follow the shape of the dose curve; as a rule, active = well fitted inhibition curve with a large enough effect; inconclusive = small, poorly fitted or top-dose-only effect; inactive = flat fitted curve, though single readings scatter. Shown is part of a subset that was picked to be rich in actives.
Assign a class; possible classes are True for active, False for inactive

O=C(Cc1nc2ccccc2[nH]c1=O)c1ccc(Cl)cc1    True

## Input Name the outcome recorded for CC(C)c1ccc(C2CC(=O)N3CN(C4CCCCC4)CSC3=C2C#N)cc1 (stereo not given) in the assay.
## Output False

## Input Name the outcome recorded for O=C(/C=C/c1ccccc1)Nc1cc(-c2nc3cc(Cl)ccc3o2)ccc1Cl in the assay.
## Output False

## Input Name the outcome recorded for CCCCOc1ccc(C(=O)N2CC(=O)Nc3ccc(Br)cc3C2c2ccc(F)cc2)cc1 (stereo not given) in the assay.
## Output False

## Input Name the outcome recorded for CCCN1CCN(CCCNC(=O)Cn2nc(CC)n3c(cc4occc43)c2=O)CC1 in the assay.
## Output False

## Input Name the outcome recorded for Cc1ccc(-c2noc(-c3nnn(-c4cccc(C(F)(F)F)c4)c3N)n2)cc1 in the assay.
## Output False

## Input Name the outcome recorded for Cc1cccc(Cn2c(SCc3ccc(C(=O)N4CCC(C)CC4)cc3)nc3ccncc32)c1 in the assay.
## Output False

## Input Name the outcome recorded for Cc1[nH]c2ccccc2c1C(c1ccccc1)c1cccs1 (stereo not given) in the assay.
## Output False

## Input Name the outcome recorded for COC(=O)c1ccccc1NC(=O)Cn1c(=O)cc(C)c2c(C)nn(-c3cccc(Cl)c3C)c21 in the assay.
## Output False

## Input Name the outcome recorded for COc1ccccc1NC(=O)CN1C(=O)c2ccccc2Sc2ccc(C(=O)N3CCCC3)cc21 in the assay.
## Output False

----------
assay: qHTS for Inhibitors of Vif-A3F Interactions: qHTS; conditions: HeLa A3F-eYFP + Vif, YFP fluorescence increase; series mostly up to 46.1 µM; also: nearly all actives have a fitted effect of over 65% in size
Hit rate of the full screen: of about 390,000 compounds, about 760 (0.19%) were called active. Another 3% or so got no clear call; they are omitted. Calls come from the whole dose curve; as a rule, active = well fitted inhibition curve with a large enough effect; inconclusive = small, poorly fitted or top-dose-only effect; inactive = flat fitted curve, though single readings scatter. Shown is part of a subset that was picked to be rich in actives.
Assign a class; possible classes are YES for active, NO for inactive

Past entries and their recorded results:
CCN1CCN(CCCNC(=O)c2cnn(-c3ccc(C)cc3C)c2C2CCN(C(=O)OC(C)(C)C)CC2)CC1    NO
CCc1nnc(SCc2c(F)cccc2Cl)c2cc3sccc3n12    NO
COc1ccc(NC(=O)CSc2nnc(-c3nnn(-c4ccc(F)cc4)c3C)o2)cc1    NO

## Input Name the outcome recorded for O=C(NC1CC(=O)N(c2ccc(F)cc2)C1)C1CCCCC1 (stereo not given) in the assay.
## Output NO

## Input Name the outcome recorded for CCOc1ccc(S(=O)(=O)c2cn(Cc3ccc(OC)cc3)c3ccc(F)cc3c2=O)cc1 in the assay.
## Output NO

----------
test: qHTS for Inhibitors of Vif-A3F Interactions: qHTS; settings: HeLa A3F-eYFP + Vif, YFP fluorescence increase; series mostly up to 46.1 µM; also: nearly all actives have a fitted effect of over 65% in size
Among all 390,000 compounds or so, about 760 (0.19%) were called active. Roughly 3% stayed inconclusive and do not appear here. Calls follow the shape of the dose curve; as a rule, active = well fitted inhibition curve with a large enough effect; inconclusive = small, poorly fitted or top-dose-only effect; inactive = flat fitted curve, though single readings scatter. This is one part of a sample in which actives are shown more often than they occur.
Assign a class; possible classes are 1 for active, -1 for inactive

Past entries and their recorded results:
CCc1nn(CC(=O)N2CCN(c3ccc(Cl)cc3)CC2)c(=O)c2cc3occc3n12    -1
COc1ccc(Cl)cc1NC(=O)c1sc2nc3c(cc2c1N)CN(C)CC3    -1
Oc1[nH]c2ccccc2c1N=Nc1c(F)c(F)c(F)c(F)c1F    1
NS(=O)(=O)c1ccc(NC(=O)COc2ccc(S(=O)(=O)NC3CCCCC3)cc2)cc1    -1
CC(=O)N1CCCc2cc(S(=O)(=O)N3CCC(C(=O)NCc4ccc(F)cc4)CC3)ccc21    -1
Cc1ccc(C)c(Oc2c(C(F)(F)F)oc3c(CN4CCN(C)CC4)c(O)ccc3c2=O)c1    -1
O=C1c2ccccc2S(=O)(=O)c2cc(N3CCN(c4ccccn4)CC3)ccc21    -1
CCCN(CCC)CCCNC(=O)Cn1ncc2c3ccccc3n(Cc3ccccc3)c2c1=O    -1
CCOC(=O)c1nnn(CC(=O)Nc2cccc(F)c2)c1C(=O)OCC    -1
CCN(CCCNC(=O)c1cc2cc3cc(OC)ccc3nc2s1)c1ccccc1    -1

## Input Name the outcome recorded for CCOC(=O)c1cc(-c2ccccc2)n(-c2cccc(C(=O)Nc3cc(OC)cc(OC)c3)c2)c1C in the assay.
## Output -1

## Input Name the outcome recorded for Cc1nc2c(-c3ccccc3)c(C)nn2c(C)c1CCC(=O)NCCc1ccccc1 in the assay.
## Output -1

## Input Name the outcome recorded for CCCCn1c(=O)c2oc3ccccc3c2n(CC(=O)Nc2ccccc2OC)c1=O in the assay.
## Output -1

## Input Name the outcome recorded for CCC1CN(S(=O)(=O)c2cc(-c3cc(C)no3)ccc2C)c2cc(C)ccc2O1 (stereo unspecified) in the assay.
## Output -1

## Input Name the outcome recorded for COC(=O)c1cc(C)sc1NC(=O)CC1Nc2ccccc2NC1=O (stereo unspecified) in the assay.
## Output -1

## Input Name the outcome recorded for O=C(Nc1ccc(Br)cc1)c1cc2nc(-c3ccccc3)cc(-c3ccccc3)n2n1 in the assay.
## Output -1

## Input Name the outcome recorded for CCOC(=O)c1cccc(NC(=O)c2cc(CN3CCCC3)on2)c1 in the assay.
## Output -1

## Input Name the outcome recorded for CCN(Cc1ccccc1)C(=O)c1cn(-c2cccc(OC)c2)c(=O)c2ccccc12 in the assay.
## Output -1

## Input Name the outcome recorded for O=C(CC1NCCc2ccccc21)Nc1cccc(Cl)c1 (stereo unspecified) in the assay.
## Output -1

## Input Name the outcome recorded for O=C(Nc1ccccc1F)C(c1ccccc1)N1Cc2ccccc2C1=O (stereo unspecified) in the assay.
## Output -1

## Input Name the outcome recorded for CCOc1ccc(CNC(=O)C2CCCN(S(=O)(=O)N(CC)c3ccc(OCC)cc3)C2)cc1 (stereo unspecified) in the assay.
## Output -1

## Input Name the outcome recorded for Cc1cccc2cc3c(N)c(C(=O)N4CCCc5ccccc54)sc3nc12 in the assay.
## Output 1

----------
test: qHTS for Inhibitors of Vif-A3F Interactions: qHTS; conditions: HeLa A3F-eYFP + Vif, YFP fluorescence increase; series mostly up to 46.1 µM; also: nearly all actives have a fitted effect of over 65% in size
In all, about 390,000 compounds went through this assay and about 760 (0.19%) were called active. Another 3% or so got no clear call; they are omitted. Calls come from the whole dose curve; as a rule, active = well fitted inhibition curve with a large enough effect; inconclusive = small, poorly fitted or top-dose-only effect; inactive = flat fitted curve, though single readings scatter. This is one part of a sample in which actives are shown more often than they occur.
Assign a class; possible classes are T = active, F = inactive

Past entries and their recorded results:
O=C(CCCn1c(=O)c2cccn2c2cccnc21)NCc1ccc(F)cc1    F
CCOCCCNC(=O)c1c(NC(=O)Cc2coc3ccc(C)cc23)sc2c1CCC2    F
COc1cc(NC(=O)Cn2c(=O)n(Cc3ccco3)c(=O)c3oc4ccccc4c32)cc(OC)c1    F
CCOC(=O)c1cc(-c2ccccc2)n(CCC(=O)Nc2ccccc2CC)c1C    F

## Input Name the outcome recorded for CNC(=S)N/N=C/c1ccc(N2CCOCC2)s1 in the assay.
## Output T

## Input Name the outcome recorded for C[C@@H](Nc1nc(-c2ccccc2)nc2c1oc1ccccc12)C(=O)O in the assay.
## Output F

## Input Name the outcome recorded for O=C(Nc1cccc2c1N(C(=O)c1ccco1)CCC2)c1ccco1 in the assay.
## Output F

## Input Name the outcome recorded for O=C(COc1ccc(Cl)cc1)Nc1ccccc1OCc1cc(=O)n2ccccc2n1 in the assay.
## Output F

## Input Name the outcome recorded for O=C1CCCc2cc(S(=O)(=O)N3CCCC(C(=O)NCc4ccccc4)C3)ccc2N1 (stereo not given) in the assay.
## Output F

## Input Name the outcome recorded for CCc1nc(Nc2ccc3nccnc3c2)c2oc3ccccc3c2n1 in the assay.
## Output T

## Input Name the outcome recorded for O=C(N/C(=C/c1ccc(Cl)cc1)C(=O)N1CCCCC1)c1ccco1 in the assay.
## Output F

## Input Name the outcome recorded for Cc1oc2ncnc(N3CCCCC3)c2c1C(=O)N1CCN(c2cccc(Cl)c2)CC1 in the assay.
## Output F

----------
assay: qHTS for Inhibitors of Vif-A3F Interactions: qHTS; conditions: HeLa A3F-eYFP + Vif (tagged APOBEC3F with the HIV-1 protein that degrades it), YFP fluorescence increase; series mostly up to 46.1 µM; also: nearly all actives have a fitted effect of over 65% in size; also: potency is read from the fitted curve at half-maximal effect
Hit rate of the full screen: of about 390,000 compounds, about 760 (0.19%) were called active. Inconclusive results (about 3%) are left out. Many of the other results were omitted from the sample, so actives are more common in it than they were.
measure_name: Potency

Examples from the recorded data:
Cc1cc(C)cc(NC(c2nnc(-c3cccc(F)c3)o2)c2ccc(F)cc2Cl)c1 (centres undefined)    inactive
COc1ccccc1NC(=O)c1oc2ccccc2c1NC(=O)C(C)C    inactive
COc1cccc(CNC(=O)C2CCC(CNS(=O)(=O)c3cccs3)CC2)c1 (centres undefined)    inactive
CCCS(=O)(=O)c1ncc(Cl)c(C(=O)Nc2scc(-c3ccccc3)c2C(=O)OCC)n1    inactive

## Input I'd like to know its Potency. The compound in question is COc1ccccc1Nc1nc(N)nc(N)c1S(=O)(=O)c1ccccc1
## Output inactive

## Input I'd like to know its Potency. The compound in question is Cc1cccc(NC(=O)Cn2nc(-c3ccc(Cl)cc3)c3ccccc3c2=O)c1
## Output inactive

## Input I'd like to know its Potency. The compound in question is Cc1ccc(CNC(=O)c2ccccc2CCc2ccccc2)cc1
## Output inactive

## Input I'd like to know its Potency. The compound in question is CCN(CC)C(=O)CSC(Nc1cccc(F)c1)=C(C#N)C#N
## Output 10 µM (active)

## Input I'd like to know its Potency. The compound in question is CC(=O)c1cccc(NC(=O)C2CCCN(S(=O)(=O)c3cccc4nonc34)C2)c1 (centres undefined)
## Output 31.6 µM (active)

## Input I'd like to know its Potency. The compound in question is CC(C)c1ccc(NC(=O)c2cc(S(=O)(=O)N3CCc4ccccc4C3)ccc2F)cc1
## Output inactive

Cited source: PubChem BioAssay AID602313
